assay: chemical genetic growth profiling, strain panel (AID 1159580);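 note: tested at 20 µM; growth read once vehicle control cultures reached saturation at 30 °C; 1 = growth at the plate median or of vehicle wells; lower values mean less growth of the strain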; conditions: S. cerevisiae deletion strains, growth OD, locus YHR030C, strain SLT2, active compounds read low
The whole screen tested about 5,500 compounds, of which about 2,000 (36%) were called active. Inconclusive results (about 18%) are left out. The list shows a part of the results.
Classify: label 1 when normalized growth is strictly less than 0.7; label 0 when normalized growth is not.

MOLECULE	ASSIGNED CATEGORY
CN(C)CCCC1(c2ccc(F)cc2)OCc2cc(C#N)ccc21 (configuration not stated)	label 0
O=C(c1csc(-c2ccc(Cl)cc2)c1)N1CCCCC1	label 1
COc1ccc(-n2c(=S)[nH]c(=O)c3cccnc32)cc1	label 0

Data request: normalized growth strictly < 0.7 for this molecule? "CCCCCCCCCCCCCc1ccco1"
Data returned: label 0

Data request: Could you please tell me whether normalized growth recorded for "C/C(Cc1nnn(-c2cc(C)on2)n1)=N/OC(=O)Nc1ccc(Cl)cc1" is less than 0.7?
Data returned: label 0

Data request: Confirm or reject: normalized growth of "O=C1c2ccccc2C(=O)C1(c1ccccc1)[N+](=O)[O-]" lies strictly below 0.7
Data returned: label 1

Data request: Threshold test, normalized growth < 0.7: "O=C(c1c(F)cccc1F)N1CCN(C(=O)c2c(F)cccc2F)CC1"
Data returned: label 0

Data request: Field: below-cutoff. Rule: recorded normalized growth strictly less than 0.7. Subject: "O=C(/C=C/c1ccc(O)c(O)c1)OCCc1ccccc1"
Data returned: label 0
